Data credit: patent US20230250160A1

Biological target: T1, Human Serum Albumin (human, UniProt P02768 25-609)
T1 construct: also called HSA
T1 sequence (P02768 25-609 limits assumed): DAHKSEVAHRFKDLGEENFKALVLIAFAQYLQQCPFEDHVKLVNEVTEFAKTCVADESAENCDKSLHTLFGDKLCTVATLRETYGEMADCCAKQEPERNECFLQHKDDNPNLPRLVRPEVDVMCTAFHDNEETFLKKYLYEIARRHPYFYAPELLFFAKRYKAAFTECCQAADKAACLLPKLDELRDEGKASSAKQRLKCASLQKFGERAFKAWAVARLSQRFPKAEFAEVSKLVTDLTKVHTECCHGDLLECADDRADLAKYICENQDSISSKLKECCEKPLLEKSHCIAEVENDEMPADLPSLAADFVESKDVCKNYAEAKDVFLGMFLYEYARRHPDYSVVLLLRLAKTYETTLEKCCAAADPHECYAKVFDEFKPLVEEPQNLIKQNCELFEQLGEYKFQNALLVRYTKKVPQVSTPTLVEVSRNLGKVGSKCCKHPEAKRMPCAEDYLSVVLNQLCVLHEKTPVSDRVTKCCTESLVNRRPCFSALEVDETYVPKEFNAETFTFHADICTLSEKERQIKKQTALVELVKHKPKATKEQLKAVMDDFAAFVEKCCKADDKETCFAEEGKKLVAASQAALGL
Experiment: SPR Biacore T200, HSA on CM5 chip, ADAPT injected, 1:1 fit
Hi! Just check whether koff is below 0.0003 s⁻¹. Below gives TRUE, equal or above gives FALSE.

- LIWAKASAVRELHRYGVSDFYYELIVKAKTVEGVEALKLHILAALP (designed binder) [ADAPT variant TNFα_09]: FALSE
- LWWAKVWAVAELQKYGVSDFYFKLIDKAKTVEGVEALKLHILAALP (designed binder) [ADAPT variant MYDGF_07]: TRUE
- LMWAKAEAAIELVDYGVSDFYQYLISKAKTVEGVEALKLHILAALP (designed binder) [ADAPT variant REN_40]: FALSE

Does LYVAKDNADWELWQYGVSDFYRSLIWKAKTVEGVEALKLHILAALP (designed binder) [ADAPT variant ANG_16] have koff strictly under 0.0003 s⁻¹?
TRUE

Does LHYAKIMAFHELWQYGVSDFYLQLIDKAKTVEGVEALKLHILAALP (designed binder) [ADAPT variant CRP_48] have koff strictly under 0.0003 s⁻¹?
FALSE

Does LRVAKSMAWHELWSYGVSDFYLRLIDKAKTVEGVEALKLHILAALP (designed binder) [ADAPT variant CRP_09] have koff strictly under 0.0003 s⁻¹?
FALSE
